meta.source: ChEMBL document CHEMBL1122019

species on record: Oryctolagus cuniculus; assay: Ratio of I50 of compound and I50 of theophylline for inhibition of cAMP phosphodiesterase isolated from rabbit lung
Would you please tag the item y when its Ratio is 4 or above, and n when it is below?

- Compound String: "CCNc1c(C(=O)OCC)cnc2ccnn12"
  Label: "y"
- Compound String: "CCOc1cc(C)nc2ccnn12"
  Label: "n"
- Compound String: "CCCNc1c(C(=O)OCC)cnc2c(CC)cnn12"
  Label: "n"
- Compound String: "CCCOc1c(C(=O)OCC)cnc2c(Br)cnn12"
  Label: "n"
- Compound String: "CCOC(=O)c1cnc2c(Br)cnn2c1N(CC)CC"
  Label: "y"
- Compound String: "CCCNc1c(C(=O)OCC)cnc2ccnn12"
  Label: "y"
- Compound String: "CCCOc1c(OCC)cnc2c(CC)cnn12"
  Label: "n"
- Compound String: "CCCOc1cc(C)nc2c(CC)cnn12"
  Label: "y"
- Compound String: "CCOC(=O)c1cnc2c(C(=O)OCC)cnn2c1N"
  Label: "n"
- Compound String: "Cc1cc(NCCO)n2nccc2n1"
  Label: "n"
- Compound String: "CCSc1cc(C)nc2c(CC)cnn12"
  Label: "y"
- Compound String: "CCCOc1c(C(=O)OCC)cnc2c(CC)cnn12"
  Label: "n"
- Compound String: "CCOC(=O)c1cnc2c(C(=O)OCC)cnn2c1O"
  Label: "n"
